Provenance of the data: PubChem BioAssay (NCI)

Could you please report measured TGI for the items listed next?
- Test system: SK-MEL-5 melanoma
- testDescription: NCI tumour cell line growth inhibition, 48 h
Give bare numbers, in µM.

- COc1cc2c(/C=C3/C(=O)Nc4ccccc43)c(Cl)[nH]c2cc1C: 1.42

The record that follows has no TGI shown yet.
Asked: Data request, read-out TGI, for COC1/C=C\C=C(/C)C(=O)NC2=CC(=O)C(=O)C(=C2O)CC(C)CC(OC)C(O)C(C)/C=C(\C)C1OC(N)=O (centres undefined)
Given back: 43.7

----------
- Test system: M14 melanoma
- testDescription: NCI tumour cell line growth inhibition, 48 h
Could you please report measured TGI for the items listed next?
Give bare numbers, in µM.

- CC(C)c1nc(CN(C)C(=O)N[C@H](C(=O)N[C@@H](Cc2ccccc2)C[C@H](O)[C@H](Cc2ccccc2)NC(=O)OCc2cncs2)C(C)C)cs1: 41.7

The record that follows has no TGI shown yet.
Asked: Give recorded TGI with M14 melanoma for the following compound: CN1CCN(C)C12C=c1ccccc1=CC21CC1
Given back: 34.8
